- target-of-assay: PcrV of P. aeruginosa strain 6077 (Pseudomonas aeruginosa strain 6077)
- measurement-notes: cell-based or functional assay
measured-endpoint: Rabbit RBC Hemolysis Assay (IC50)

Some entries whose results are on file:
binder	experimental-value
H1H29336P (antibody, V domains shown) VH: EVQLVESGGGLVQPGGSLRLSCAASGFTFSSYAMTWVRQAPGKGLEWVSSIRGSGYSSDYADSVKGRFTISRDNSENTVYLQMNRLRAEDTAVYYCAKERSVTAYYYYGMDVWGQGTTVTVSS VL: DIQLTQSPSFLSASVGDRVTITCWASQDISSFLTWYQQKPGIAPKLLIYTASTLQSGVPSRFSGSGSGTEFTLTISSLQPEDFATYYCQQLKSYPLTFGGGTKVEIKR	0.205 nM
H1H29339P (antibody, V domains shown) VH: EVQLVESGGDLVQPGGSLRLSCAASGFTFNTYAMNWVRQAPGKGLEWVAVIGGSGYSTNYADSVKGRFTISRDNSKNTLYLQMNSLRTEDTAVYYCAKEGNIVALYWYFDLWGRGTLVTVSS VL: DIQMTQSPSSLSASVGDRVTITCRASQSISRYLNWYQQKPGKAPKLLIYAASSLQGGVPSKFSGSGSGTDFTLTISSLQPEDFATYYCQQSSTTPLTFGGGTKVEIKR	2.3 nM
H1H29329P (antibody, V domains shown) VH: EVQLVESGGGLVQPGGSLRLSCAASGFTFSDHEMNWVRQAPGKGLEWISYIGSGVVTMYYADSVRGRFTISRDNAKKTLYLQMNSLRAEDTAVYYCARDRGYYFGSEAFHYWGQGTLVTVSS VL: DIQMTQSPSTLSASVGDRVTITCRASQSISNWLAWYQQKPGKAPKLLIYKSSSLESGVPSRFSGSGSGTEFTLTISSLQPDDFATYYCQQYKSYSLTFGGGTKVEIKR	56.4 nM

With those in mind, consider the next binder.
Query: State the recorded Rabbit RBC Hemolysis Assay (IC50) for this entry: REGN3514 (antibody, V domains shown, also called Control I; Control I-REGN3514) VH: EMQLLESGGGLVQPGGSLRLSCAASGFTFSSYAMNWVRQAPGEGLEWVSAITISGITAYYTDSVKGRFTISRDNSKNTLYLQMNSLRAGDTAVYYCAKEEFLPGTHYYYGMDVWGQGTTVTVSS VL: AIQMTQSPSSLSASVGDRVTITCRASQGIRNDLGWYQQKPGKAPKLVIYSASTLQSGVPSRFSGSGSGTDFTLSISSLQPDDFATYYCLQDYNYPWTFGQGTKVEIKR
Response: 2.44 nM
